Sourced from patent US20140107109A1

tested on: Aβ40 in conditioned medium of cells stably expressing Amyloid Precursor Protein (APP); test: In vitro BACE cell-based assay (HEK cell assay), Aβ40 sandwich ELISA; settings: Homo sapiens, HEK293; average IC50, HEK cells
measuredProperty: IC50 (nM)

CC1[C@@](C)(c2cc(Br)ccc2F)N=C(N)[C@](C)(F)S1(=O)=O (stereo partly shown); 5470

1 = COc1ccc(C(=O)Nc2ccc(F)c([C@]3(CF)CS(=O)(=O)C(C)(C)C(N)=N3)c2)nc1
2 = C[C@]1(F)C(N)=N[C@](C)(c2cc(Nc3ncc(F)c4cc(C#N)cnc34)ccc2F)CS1(=O)=O
**Q:** Decide: 1 or 2 , by lowest recorded IC50. The response must carry the label of the picked entry.
**A:** 1
